protocol_notes: Metabolic stability in rat liver microsomes assessed as clearance at 1 uM measured upto 90 mins by LC-MS/MS analysis
Format: ADME, Microsome
assay_context: read-out: CLH
Given measured CLint scaled at 1 µM, output MET if it is greater than or equal to 20 mL/min/kg and NOT MET if not.

# smiles_code, group_label
records = [
    ("O=C(Nc1cccc(-c2nncn2CC2CC2)c1)c1cc2c(cc1F)OCc1cncn1-2", "MET"),
]

Task item: # check: CLint scaled at 1 µM of CC(C)n1cnnc1-c1cccc(NC(=O)c2cc3c(cc2F)OCC(=O)N3)n1 is greater than or equal to 20 mL/min/kg
Reply: NOT MET

Task item: # check: CLint scaled at 1 µM of O=C(Nc1cccc(-c2nncn2-c2ccccc2)n1)c1cc2c(cc1F)OCc1cncn1-2 is greater than or equal to 20 mL/min/kg
Reply: MET

Task item: # check: CLint scaled at 1 µM of O=C1CCCc2cc(F)c(C(=O)Nc3cccc(-c4nncn4C4CC4)n3)cc2N1 is greater than or equal to 20 mL/min/kg
Reply: NOT MET

Task item: # check: CLint scaled at 1 µM of CC(C)n1cnnc1-c1cccc(NC(=O)c2cc3c(cc2F)CCC(=O)N3)c1 is greater than or equal to 20 mL/min/kg
Reply: NOT MET

Task item: # check: CLint scaled at 1 µM of CC(C)n1cnnc1-c1cccc(NC(=O)c2cc3c(cc2F)OCc2cncn2-3)n1 is greater than or equal to 20 mL/min/kg
Reply: MET
